In this section we review reported Antiviral potency, IC50, JRFL pseudovirion entry assay values for a set of binders.
Biological target: HIV-1 gp41 of strain JRFL (HIV-1 strain JRFL)
Experiment: cell-based or functional assay
Bridge positions count the residues as written; N and C are the ends. Square brackets hold non-standard residues; d marks the D form. Primed or numbered codes have the meaning given here. Side chains are listed from the residue outwards. PEG4″ = PEG chain having 4 ethylene glycol repeat units; 4‑arm scaffold = not defined here; PEG4′ = not defined here
Quantity measured: Antiviral potency, IC50, JRFL pseudovirion entry assay (nM)

Ac-[dH][dP][dC][dD][dY][dP][dE][dW][dQ][dW][dL][dC][dE][dL]G[dK]([PEG4″-4‑arm scaffold])-NH2 (disulfide 3-12 (inferred); reading uncertain; also: trimer: three PIE12 monomers on 4-arm scaffold, fourth arm PEG24 with D-cysteine bridge carrying palmitate) [Palmitate-conjugated PIE12-trimer] | 0.54
Ac-[dH][dP][dC][dD][dY][dP][dE][dW][dQ][dW][dL][dC][dE][dL]GK-NH2 (disulfide 3-12 (inferred); not fully specified (residue 16); also: trimer: three PIE12 monomers on 4-arm scaffold, fourth arm PEG24 carrying 40 kDa Y-branched PEG) [40 kD PEG-PEG24-PIE12 trimer] | 71
Ac-[dH][dP][dC][dD][dY][dP][dE][dW][dQ][dW][dL][dC][dE][dL]G[PEG4′]K-NH2 (disulfide 3-12 (inferred); not fully specified (some residues); numbers in words are those of the source; also: PIE12-2 trimer on scaffold, fourth arm PEG28 + PEG4 with cholesteryl carbamate) [CPT31 (cholesterol-PIE12-2-trimer with PEG32 fourth-arm spacer)] | 0.015
Ac-[dH][dP][dC][dD][dY][dP][dE][dW][dQ][dW][dL][dC][dE][dL]G[dK]([PEG4″-4‑arm scaffold])-NH2 (disulfide 3-12 (inferred); reading uncertain; also: PIE12 trimer on 4-arm scaffold, fourth arm 5 kDa linear polydisperse PEG with thiocholesterol) [CPT24-5 kD] | 0.026
